format: physicochemical; settings: HPLC on reversed phase columns, method [a]: pH 2.7, 0.1% formic acid in water and acetonitrile, linear gradient 10% to 95% acetonitrile
measuredAttribute: log P

Input line: Item CC(C)CNC(=O)C1(C)CC(c2ccc3ncc(Br)cc3c2)=NO1 (stereo not shown) [compound 743] has what recorded log P?
Output line: 3.15[a]

Input line: Item Cc1cnccc1CNC(=O)C1(C)CC(c2ccc3ncc(Br)cc3c2)=NO1 (stereo not shown) [compound 695] has what recorded log P?
Output line: 1.46[a]

Input line: Item CC1(C(=O)NCc2ccnc(C(F)(F)F)c2)CC(c2ccc3ncc(Br)cc3c2)=NO1 (stereo not shown) [compound 795] has what recorded log P?
Output line: 2.96[a]

Input line: Item C#Cc1cnc2ccc(C3=NOC(OC)(C(=O)NCCC4CCCO4)C3)cc2c1 (racemic) [compound 818] has what recorded log P?
Output line: 2.11[a]

---

assay type: physicochemical; details: HPLC on reversed phase columns, method [a]: pH 2.7, 0.1% formic acid in water / acetonitrile, linear gradient 10% to 95% acetonitrile
measuredAttribute: log P

Input line: Item CCn1cc(CNC(=O)C2(C)CC(c3ccc4nc(C#N)c(Br)cc4c3)=NO2)c(C)n1 (stereo not drawn) has what recorded log P?
Output line: 2.57[a]

Input line: Item C#Cc1cnc2ccc(C3=NOC(C)(C(=O)NCc4ccnc(OC)c4)C3)cc2c1 (stereo not drawn) has what recorded log P?
Output line: 2.26[a]

Input line: Item CCOCCCNC(=O)C1(OC)CC(c2cc(Cl)c3ncc(Br)cc3c2)=NO1 (stereo not drawn) has what recorded log P?
Output line: 3.19[a]

Input line: Item CCOCCCNC(=O)C1(C(C)=O)CC(c2ccc3ncc(Br)cc3c2)=NO1 (stereo not drawn) has what recorded log P?
Output line: 2.90[a]

Input line: Item COc1ccc(CNC(=O)C2(C)CC(c3ccc4ncc(Br)cc4c3)=NO2)nn1 (stereo not drawn) has what recorded log P?
Output line: 2.28[a]

Input line: Item CCCn1cc(CNC(=O)C2(OC)CC(c3cc(C)c4ncc(Br)cc4c3)=NO2)c(C)n1 (stereo not drawn) has what recorded log P?
Output line: 3.27[a]

Input line: Item C#Cc1cnc2ccc(C3=NOC(OC)(C(=O)NC(C)CC(=O)OC)C3)cc2c1 (stereo not drawn) has what recorded log P?
Output line: 2.28[a]

Input line: Item C#Cc1cnc2c(Cl)cc(C3=NOC(OC)(C(=O)NCc4cn(CCC)nc4C)C3)cc2c1 (stereo not drawn) has what recorded log P?
Output line: 2.80[a]

Input line: Item C#Cc1cnc2ccc(C3=NOC(C)(C(=O)NC(C)C4=NOCC4)C3)cc2c1 (stereo not drawn) has what recorded log P?
Output line: 2.08[a]

Input line: Item CCn1cc(CNC(=O)C2(C)CC(c3ccc4nc(Cl)c(Br)cc4c3)=NO2)c(C)n1 (stereo not drawn) has what recorded log P?
Output line: 3.12[a]

Input line: Item C#Cc1cnc2ccc(C3=NOC(C)(C(=O)NCc4cn(C5CCCC5)nc4C)C3)cc2c1 (stereo not drawn) has what recorded log P?
Output line: 2.71[a]

Input line: Item CCCCCn1cc(CNC(=O)C2(C)CC(c3ccc4ncc(Br)cc4c3)=NO2)c(C)n1 (stereo not drawn) has what recorded log P?
Output line: 3.31[a]

---

Tested on: Uromyces appendiculatus
Test: In vivo preventive test on Uromyces appendiculatus (bean rust)
Details: 500 ppm; bean plants sprayed 24 hours before contamination; grading 10 days after contamination vs control plants
Protocol: Bean plants (“Saxa” variety), sown in starter cups on a 50/50 peat soil-pozzolana substrate and grown at 24° C., are treated at the 2-leaf stage (9 cm height) by spraying with the active ingredient prepared as described above. Plants, used as controls, are treated with the mixture of acetone/tween/DMSO/water not containing the active material. After 24 hours, the plants are contaminated by spraying the leaves with an aqueous suspension of Uromyces appendiculatus spores (150 000 spores per ml).
Exercise: for every item that follows, state its recorded % of efficacy (protection).
Return type: number; implicit unit %.

Input line: Item C#Cc1cnc2ccc(C3=NOC(C)(C(=O)NCc4ccsc4)C3)cc2c1 (stereo not drawn) [compound 515] has what recorded % of efficacy (protection)?
Output line: 91

Input line: Item C#Cc1cnc2ccc(C3=NOC(OC)(C(=O)NCC4COC(C)(C)O4)C3)cc2c1 (stereo not drawn) [compound 476] has what recorded % of efficacy (protection)?
Output line: 77

Input line: Item C#Cc1cnc2ccc(C3=NOC(OC)(C(=O)NCc4cn(CC)nc4C)C3)cc2c1 (racemic) [compound 442] has what recorded % of efficacy (protection)?
Output line: 88

Reference for the values: patent US9510598B2
